- experimental_system: SYK (Homo sapiens)
- Construct: lines 1-140) and Reaction Biology
- procedure_details: Dundee kinase panel
- Format: biochemical
- assay_context: read-out: residual activity
- Method: Compounds were screened at 1 μM. For key hits, pIC50 values were then determined by HTRF as above. […] Stability in mouse and human liver microsomes was determined by Cyprotex.
Exercise: for every item that follows, state its recorded remaining activity at 1 µM.
# value in %; strip the unit string

Returns the measured remaining activity at 1 µM for the input molecule. Input: O=C1Cc2c([nH]c3ccc(Br)cc23)-c2ccccc2N1 [Kenpaullone]
87

Returns the measured remaining activity at 1 µM for the input molecule. Input: COCCOc1ccc(-c2cn(-c3ccccc3)c3nc[nH]c(=O)c23)cc1 [DMX-5804]
96

Returns the measured remaining activity at 1 µM for the input molecule. Input: Oc1ncnc2c1c(-c1ccccc1)cn2-c1ccccc1 [F1386-0303]
112

Returns the measured remaining activity at 1 µM for the input molecule. Input: O=C1Nc2ccc(I)cc2/C1=C/c1cc(Br)c(O)c(Br)c1 [GW5074]
72
